Numbers sourced from PubChem BioAssay AID2060891.

System: K98450-129-R-PDC complex spheroid growth, percent test/control;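 further: luminescence used as a proxy for viable cell amount; spheroids exposed to agents for seven days before the viability readout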
method.notes: Anticancer human tumor K98450-129-R-PDC patient-derived colon adenocarcinoma cell line growth inhibition [RAS]
study.conditions: second compound 1 µM; first compound 0.1 µM; stronger effect = lower value
Measured viability, T/C, listed per entry.
measurement.label: viability, T/C (%)

{"columns": ["molecule", "measurement.label", "observed"],
 "data": [
  ["CC(=O)OC12COC1CC(O)C1(C)C(=O)C(O)C3=C(C)C(OC(=O)C(O)C(NC(=O)OC(C)(C)C)c4ccccc4)CC(O)(C(OC(=O)c4ccccc4)C21)C3(C)C (configuration not stated) + C#Cc1c(F)ccc2cc(O)cc(-c3ncc4c(N5CC6CCC(C5)N6)nc(OCC56CCCN5CC(F)C6)nc4c3F)c12", "viability, T/C", 101],
  ["Nc1ccn(C2OC(CO)C(O)C2(F)F)c(=O)n1 (configuration not stated) + C#Cc1c(F)ccc2cc(O)cc(-c3ncc4c(N5CC6CCC(C5)N6)nc(OCC56CCCN5CC(F)C6)nc4c3F)c12", "viability, T/C", 43.3]
]}
